system: A549; assay: NCI tumour cell line growth inhibition, 48 h
Activity calls are given as the source filed them. Rule as the data show it: active = GI50 up to about 1.1 µM and inactive = higher.

molecule: COc1ccccc1N1C(=O)CSC1c1cccc(Oc2ccccc2)c1 (configuration not stated)
system.name: A549
GI50: 21.8 µM (inactive)
//
molecule: CCCCCCCCCCCc1nnc(N)o1
system.name: A549
GI50: > 100 µM (inactive)
//
molecule: Cc1cc2c(c(C(N)=O)c1C)-c1cccc(F)c1C2=O
system.name: A549
GI50: > 100 µM (inactive)
//
molecule: CC(C)=CCNc1ncnc2c1c(C#N)cn2C1OC(CO)C(O)C1O (configuration not stated)
system.name: A549
GI50: 8.32 µM (inactive)
//
molecule: COC(=O)[C@H](Cc1ccccc1)NP(=O)(OCCC#N)OCC1OC(n2cc(C)c(=O)[nH]c2=O)CC1N=[N+]=[N-] (some centres not stated)
system.name: A549
GI50: > 100 µM (inactive)
//
molecule: CN(C)CCN(C)CCC(=O)/C=C/c1ccccc1
system.name: A549
GI50: > 71.6 µM (inactive)
//
molecule: CC(C)(C)NNC(=O)/C(=C/c1ccc(Oc2ccc(Cl)c(Cl)c2)cc1)NC(=O)c1ccccc1
system.name: A549
GI50: > 100 µM (inactive)
//
molecule: O=C(COc1ccc(Br)cc1Br)N1N=C(c2ccc([N+](=O)[O-])o2)CC1(O)c1ccccc1 (configuration not stated)
system.name: A549
GI50: 8.65 µM (inactive)
//
molecule: O=C(NN1C(=O)C(Cl)C1c1ccc(Cl)cc1)c1c(Cl)c(Cl)c(Cl)c(Cl)c1-c1nc2ccccc2[nH]1 (configuration not stated)
system.name: A549
GI50: 26.4 µM (inactive)
//
molecule: NC(=O)Nc1n[nH]c(-c2ccccc2)n1
system.name: A549
GI50: > 100 µM (inactive)
//
molecule: CCOC(=O)C(C(=S)Nc1ccccc1)c1nn2c(=O)cc(C)nc2s1 (configuration not stated)
system.name: A549
GI50: 37.4 µM (inactive)
//
molecule: CCOC(=O)c1ccc(-n2c(SCC)nc3sc(C)c(C)c3c2=O)cc1
system.name: A549
GI50: > 100 µM (inactive)
//
molecule: Cn1c2ccccc2n2c3ccccc3c(=S)c(C#N)c12
system.name: A549
GI50: > 100 µM (inactive)
//
molecule: CC(=O)N1N=C(c2c(O)ccc3ccccc23)CC1c1ccc(Cl)cc1 (configuration not stated)
system.name: A549
GI50: 23.6 µM (inactive)
//
molecule: CCC(C#N)(c1ccccc1)N(CCc1ccccc1)C(=O)c1ccccc1 (configuration not stated)
system.name: A549
GI50: 77.1 µM (inactive)
//
molecule: COc1cccc(N(CN2CC=CC2=O)C(C)=O)c1
system.name: A549
GI50: > 100 µM (inactive)
//
molecule: N=C(N)n1nc2c(c1O)CCCC2
system.name: A549
GI50: > 100 µM (inactive)
//
molecule: CCN(C(=O)N[C@@H](CC(C)C)C(=O)NCC(=O)OC)c1ccccc1
system.name: A549
GI50: > 100 µM (inactive)
//
molecule: C#CC(O)/C=C/CCCCCCC#CC/C=C\CC#CCCCCCCCCC(O)C#C (configuration not stated)
system.name: A549
GI50: 8.43 µM (inactive)
//
molecule: CC(=O)NCCCCNCCCNC(C)=O
system.name: A549
GI50: > 100 µM (inactive)
//
molecule: O=c1cc(/C=C/c2ccccc2)c2ccc(O/C(=C\c3ccccc3)c3nc4ccccc4c(=O)o3)cc2o1
system.name: A549
GI50: 30.4 µM (inactive)
//
molecule: C=C(Cl)C(Cl)(CCl)CCC(Br)C(C)(C)Br (configuration not stated)
system.name: A549
GI50: > 10 µM (inactive)
